Target: BSA (UniProt P02769)
Sequence (P02769 25-607 limits assumed): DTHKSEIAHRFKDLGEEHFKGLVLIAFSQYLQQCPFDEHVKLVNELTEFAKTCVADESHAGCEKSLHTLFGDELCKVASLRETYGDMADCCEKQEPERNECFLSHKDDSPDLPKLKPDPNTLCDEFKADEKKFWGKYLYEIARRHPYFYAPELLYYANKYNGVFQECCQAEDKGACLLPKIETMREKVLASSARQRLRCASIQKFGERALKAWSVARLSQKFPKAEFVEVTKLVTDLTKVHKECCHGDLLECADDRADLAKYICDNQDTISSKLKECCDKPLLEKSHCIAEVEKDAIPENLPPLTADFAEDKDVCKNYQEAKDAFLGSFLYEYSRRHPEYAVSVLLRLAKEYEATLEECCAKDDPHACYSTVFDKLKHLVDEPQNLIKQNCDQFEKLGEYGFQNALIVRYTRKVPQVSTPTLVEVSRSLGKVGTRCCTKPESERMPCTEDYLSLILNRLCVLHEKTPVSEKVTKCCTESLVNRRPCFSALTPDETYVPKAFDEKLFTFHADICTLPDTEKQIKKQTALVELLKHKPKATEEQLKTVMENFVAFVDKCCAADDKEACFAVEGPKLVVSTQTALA
Test: scFv ELISA
Readout type: OD450

| Binder | Readout type | Observed value |
| --- | --- | --- |
| PcOxP_DB03_F03 (scFv, V domains shown, scFv in periplasmic extract) VH: EVQLLESGGGLVQPGGSLRLSCAASGFTFSDQYMEWVRQAPGKGLEWVAASRNKNNDYTTEYADSVKGRFTISRDNSKNTLYLQMNSLRAEDTAVYYCARDYYGASYWYFDVWGQGTLVTVSS VL: DIVMTQSPDSLAVSLGERATINCTASQSVYSSKHKKHYLAWYQQKPGQPPKLLIYGANNRYIGVPDRFSGSGSGTDFTLTISSLQAEDVAVYYCGQFYSYPLTFGGGTKVEIK | OD450 | 0.08 OD450 |
| PcOxP_DB01_C03 (scFv, V domains shown, scFv in periplasmic extract) VH: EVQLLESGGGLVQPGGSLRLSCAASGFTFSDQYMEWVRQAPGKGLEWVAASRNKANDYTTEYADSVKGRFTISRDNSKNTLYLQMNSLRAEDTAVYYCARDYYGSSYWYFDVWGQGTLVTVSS VL: DIQMTQSPSSLSASVGDRVTITCTASESLYSSKHKVHYLAWYQQKPGKAPKLLIYGASNRYIGVPSRFSGSGSGTDFTLTISSLQPEDFATYYCAQFYQYPLTFGGGTKVEIK | OD450 | 0.1 OD450 |
| PcOxP_DB02_G03 (scFv, V domains shown, scFv in periplasmic extract) VH: EVQLLESGGGLVQPGGSLRLSCAASGFGFSDFYMEWVRQAPGKGLEWVAASRNKANDYTTEYADSVKGRFTISRDNSKNTLYLQMNSLRAEDTAVYYCARDYYGSSYWYHDVWGQGTLVTVSS VL: DIVMTQSPDSLAVSLGERATINCTASEDLYSSKHKVHYLAWYQQKPGQPPKLLIYGTSNRYIGVPDRFSGSGSGTDFTLTISSLQAEDVAVYYCAQYYSYPLTFGGGTKVEIK | OD450 | 0.06 OD450 |
| PcOxP_DB02_A04 (scFv, V domains shown, scFv in periplasmic extract) VH: EVQLLESGGGLVQPGGSLRLSCAASGDTFSDFYMEWVRQAPGKGLEWVAASRNKWNDYTTEYADSVKGRFTISRDNSKNTLYLQMNSLRAEDTAVYYCARDYYGSSYWYFDVWGQGTLVTVSS VL: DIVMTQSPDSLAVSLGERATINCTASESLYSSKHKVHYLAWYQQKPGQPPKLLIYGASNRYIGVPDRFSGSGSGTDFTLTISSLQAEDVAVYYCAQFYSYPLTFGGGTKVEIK | OD450 | 0.09 OD450 |
| PcOxP_DB02_G06 (scFv, V domains shown, scFv in periplasmic extract) VH: EVQLLESGGGLVQPGGSLRLSCAASGFTFSSYYMEWVRQAPGKGLEWVAASRNQANDYTTEYADSVKGRFTISRDNSKNTLYLQMNSLRAEDTAVYYCARDYYGSPYWYFDVWGQGTLVTVSS VL: DIQMTQSPSSLSASVGDRVTITCTASESLYSSKHKVHYLAWYQQKPGKAPKLLIYGVSNRYIGVPSRFSGSGSGTDFTLTISSLQPEDFATYYCAQFYSYPLTFGGGTKVEIK | OD450 | 0.08 OD450 |
